Listed compounds paired with reported half-life at 0.1 mg/mL
Assay: Stability (degradation kinetics, recovery) in different solvent environments by RP-UPLC
Format: physicochemical
Conditions: 0.2% DMSO; read-out: degradation t1/2 (converted)
Property: half-life at 0.1 mg/mL (days)

>  <Smiles representation>
O=C1C=CC(=O)c2c1[nH]c(-c1ccccc1[N+](=O)[O-])[n+]2[O-]

>  <Unit string>
days

>  <Recorded number>
17.2

$$$$
>  <Smiles representation>
O=C1C=CC(=O)c2[nH]c(-c3ccccc3[N+](=O)[O-])nc21

>  <Unit string>
days

>  <Recorded number>
8.96

$$$$

###

Experiment: Stability (degradation kinetics, recovery) in different solvent environments by RP-UPLC
Assay type: physicochemical
Conditions: MeOH; read-out: degradation t1/2 (converted)
In this section, each of the compounds is paired with its reported half-life at 0.1 mg/mL.

>  <Smiles representation>
O=C1C=CC(=O)c2c1[nH]c(-c1ccccc1[N+](=O)[O-])[n+]2[O-]

>  <Qualifier sign>
=

>  <half-life at 0.1 mg/mL / h>
161

$$$$
>  <Smiles representation>
O=C1C=CC(=O)c2[nH]c(-c3ccccc3[N+](=O)[O-])nc21

>  <Qualifier sign>
>

>  <half-life at 0.1 mg/mL / h>
72

$$$$
